List of Ki tested on Cannabinoid receptor 1 (Taeniopygia guttata).
Sequence (P56971 whole entry): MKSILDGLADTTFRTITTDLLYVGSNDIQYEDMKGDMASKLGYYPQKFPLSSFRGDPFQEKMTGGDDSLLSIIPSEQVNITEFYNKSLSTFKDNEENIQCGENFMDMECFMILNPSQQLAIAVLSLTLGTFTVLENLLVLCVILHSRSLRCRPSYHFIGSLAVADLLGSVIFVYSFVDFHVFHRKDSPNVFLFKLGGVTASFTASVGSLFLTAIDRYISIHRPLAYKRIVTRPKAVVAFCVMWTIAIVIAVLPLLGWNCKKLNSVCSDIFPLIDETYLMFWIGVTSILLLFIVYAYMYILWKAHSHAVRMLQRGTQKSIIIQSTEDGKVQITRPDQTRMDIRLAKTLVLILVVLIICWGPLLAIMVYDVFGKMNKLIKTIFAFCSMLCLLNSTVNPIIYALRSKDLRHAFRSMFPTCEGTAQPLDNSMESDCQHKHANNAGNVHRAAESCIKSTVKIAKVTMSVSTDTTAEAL
Unit µM implied. Number only.

Observe how each entry below is paired with its result.
INSERT INTO assay_data (compound, experimental_target, meas_value) VALUES
  ('CCCCCCC(C)(C)c1ccc([C@H]2C[C@@H](O)CC[C@@H]2CCCO)c(O)c1 [CP-56667 [(+)-AC],XV]', 'Cannabinoid receptor 1 (Taeniopygia guttata)', 0.00592),
  ('Cc1c(C(=O)c2cccc3ccccc23)c2cccc3c2n1[C@H](CN1CCOCC1)CO3', 'Cannabinoid receptor 1 (Taeniopygia guttata)', 0.0633),
  ('CCCCC/C=C\C/C=C\C/C=C\C/C=C\CCCC(=O)NC(C)CO (stereo unspecified)', 'Cannabinoid receptor 1 (Taeniopygia guttata)', 0.166);

Quick one: Ki for CC(=O)Oc1cc(OC(C)CCCc2ccccc2)cc2c1C1CC(O)CCC1C(C)N2 (stereo unspecified) ?
0.00824

Then this compound: CCCCC/C=C\C/C=C\C/C=C\C/C=C\CCCCCC(=O)NCCO
2.79

Then this compound: CCCCCCC(C)(C)c1cc(O)c2c(c1)OC(C)(C)[C@@H]1CC=C(CO)CC21 (stereo partly specified)
0.00232
